Origin of the recorded values: ChEMBL document CHEMBL5236635

- TARGET SYSTEM: CYP1B1 (Homo sapiens)
- Sequence (Q16678 whole entry): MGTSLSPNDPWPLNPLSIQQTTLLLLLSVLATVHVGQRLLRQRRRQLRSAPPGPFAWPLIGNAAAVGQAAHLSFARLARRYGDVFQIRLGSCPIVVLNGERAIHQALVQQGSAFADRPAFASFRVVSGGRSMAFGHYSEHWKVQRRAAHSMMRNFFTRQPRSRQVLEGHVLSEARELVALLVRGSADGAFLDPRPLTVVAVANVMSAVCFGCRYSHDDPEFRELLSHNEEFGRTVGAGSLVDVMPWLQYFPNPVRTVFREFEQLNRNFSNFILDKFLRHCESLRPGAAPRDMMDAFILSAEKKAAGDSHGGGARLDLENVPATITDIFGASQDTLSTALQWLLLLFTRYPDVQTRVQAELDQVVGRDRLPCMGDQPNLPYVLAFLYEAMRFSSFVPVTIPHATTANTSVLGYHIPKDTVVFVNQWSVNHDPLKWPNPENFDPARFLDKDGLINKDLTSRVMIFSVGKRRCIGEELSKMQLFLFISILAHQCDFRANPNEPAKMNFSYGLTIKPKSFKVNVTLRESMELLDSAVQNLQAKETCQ
- ASSAY PROCEDURE: Inhibition of recombinant human CYP1B1 assessed as inhibition ratio at 100 nM using 7-ethyl-0-resorufin as substrate incubated for 30 mins in presence of NADPH by EROD assay relative to control
- CONDITION CONTEXT: recombinant human CYP1B1, probe 7-ethyl-0-resorufin
Param threshold (90%) applies to inhibition at 0.5 h, 0.1 µM; output label 1 when value >= threshold, label 0 when value < threshold.

Reference set, count: 2
COMPOUND STRUCTURE	DISCRETE LABEL
c1cnc2ccc(Nc3nc(-c4nccs4)cs3)cc2c1	label 1
c1csc(-c2csc(Nc3ccc(N4CCNCC4)cc3)n2)n1	label 0

Does c1ccc(Nc2nc(-c3nccs3)cs2)cc1 have a reported inhibition at 0.5 h, 0.1 µM of at least 90%?
label 0

Kindly determine if inhibition at 0.5 h, 0.1 µM recorded for c1csc(-c2csc(Nc3ccc4c(c3)OCO4)n2)n1 is above or exactly 90%.
label 1

For this compound, is measured inhibition at 0.5 h, 0.1 µM 90% or higher? Oc1cccc(Nc2nc(-c3nccs3)cs2)c1
label 0

Entry c1cn(Cc2ccc(Nc3nc(-c4nccs4)cs3)cc2)cn1 : is its inhibition at 0.5 h, 0.1 µM no less than 90%?
label 1

In plain terms: is recorded inhibition at 0.5 h, 0.1 µM at least 90% for c1csc(-c2csc(Nc3ccc(-n4cncn4)cc3)n2)n1 ?
label 0
